# System: third stage larvae of Haemonchus contortus
# run.description: Haemonchus contortus, Larvae Stage 3 (HcL3) In Vitro Assay
# Type: cell-based
# recorded.conditions: Haemonchus contortus, 96 h, read-out: HcL3 MED, Minimum Effective Dose, H. contortus third stage larvae, approximately 96 hours
Label rule, in plain words: minimal effective concentration of 1 µM and up is Met, under 1 µM is Not met.

Reference set, count: 4
substance.smiles: COc1ccnc(Cc2ccc(C[C@H]3OC(=O)[C@H](CC(C)C)N(C)C(=O)[C@@H](C)OC(=O)[C@H](CC(C)C)N(C)C(=O)[C@@H](Cc4ccc(Cc5nccc(OC)n5)cc4)OC(=O)[C@H](CC(C)C)N(C)C(=O)[C@@H](C)OC(=O)[C@H](CC(C)C)N(C)C3=O)cc2)n1
label.value: Met

substance.smiles: CC(C)C[C@H]1C(=O)O[C@H](Cc2ccc(Cc3cnco3)cc2)C(=O)N(C)[C@@H](CC(C)C)C(=O)O[C@H](C)C(=O)N(C)[C@@H](CC(C)C)C(=O)O[C@H](Cc2ccc(Cc3cnco3)cc2)C(=O)N(C)[C@@H](CC(C)C)C(=O)O[C@H](C)C(=O)N1C
label.value: Met

substance.smiles: COc1cncc(Cc2ccc(C[C@H]3OC(=O)[C@H](CC(C)C)N(C)C(=O)[C@@H](C)OC(=O)[C@H](CC(C)C)N(C)C(=O)[C@@H](Cc4ccc(Cc5cncc(OC)n5)cc4)OC(=O)[C@H](CC(C)C)N(C)C(=O)[C@@H](C)OC(=O)[C@H](CC(C)C)N(C)C3=O)cc2)n1
label.value: Met

substance.smiles: CC(C)C[C@H]1C(=O)O[C@H](Cc2ccc(Cc3cccnc3C3CC3)cc2)C(=O)N(C)[C@@H](CC(C)C)C(=O)O[C@H](C)C(=O)N(C)[C@@H](CC(C)C)C(=O)O[C@H](Cc2ccc(Cc3cccnc3C3CC3)cc2)C(=O)N(C)[C@@H](CC(C)C)C(=O)O[C@H](C)C(=O)N1C
label.value: Met

Would you say COc1ccsc1Cc1ccc(C[C@H]2OC(=O)[C@H](CC(C)C)N(C)C(=O)[C@@H](C)OC(=O)[C@H](CC(C)C)N(C)C(=O)[C@@H](Cc3ccccc3)OC(=O)[C@H](CC(C)C)N(C)C(=O)[C@@H](C)OC(=O)[C@H](CC(C)C)N(C)C2=O)cc1 shows minimal effective concentration at minimum 1 µM?
Not met
